src = paper PMC6719172

Biological target: CpLIP2 lipase (Candida parapsilosis, UniProt Q8NIN8)
Sequence (Q8NIN8 entry or part of it): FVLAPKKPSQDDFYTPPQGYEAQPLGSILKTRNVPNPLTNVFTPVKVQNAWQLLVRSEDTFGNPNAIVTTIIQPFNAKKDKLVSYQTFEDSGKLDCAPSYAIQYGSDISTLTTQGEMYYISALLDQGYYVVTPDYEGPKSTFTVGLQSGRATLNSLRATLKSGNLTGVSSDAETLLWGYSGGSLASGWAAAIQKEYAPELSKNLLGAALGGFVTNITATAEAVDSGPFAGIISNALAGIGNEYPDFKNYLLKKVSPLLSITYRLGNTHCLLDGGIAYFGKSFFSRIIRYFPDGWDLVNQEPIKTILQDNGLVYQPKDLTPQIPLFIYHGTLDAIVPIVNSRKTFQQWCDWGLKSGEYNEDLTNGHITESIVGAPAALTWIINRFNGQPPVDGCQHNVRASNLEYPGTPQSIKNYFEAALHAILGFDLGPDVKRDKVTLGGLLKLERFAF
Test: Quenching of CpLIP2 intrinsic tryptophan fluorescence by flavonols (Stern–Volmer, Lehrer, van't Hoff analysis)
Type: binding
Conditions: 328 K; CpLIP2 2.5 µM, pH 7.0; flavonol 2.5–25 µM (GAL 2.5–17.5 µM)
QUANTITY NAME: KSV (Stern–Volmer quenching constant)

INSERT INTO assay_data (compound, recorded_result) VALUES
  ('O=c1c(O)c(-c2ccccc2)oc2cc(O)cc(O)c12 [GAL, galangin]', '1.5 ± 0.6 × 10^4 L·mol^−1'),
  ('O=c1c(O)c(-c2ccc(O)c(O)c2)oc2cc(O)cc(O)c12 [QUE, quercetin]', '2.0 ± 0.7 × 10^4 L·mol^−1'),
  ('O=c1c(O)c(-c2cc(O)c(O)c(O)c2)oc2cc(O)cc(O)c12 [MYR, myricetin]', '1.4 ± 0.5 × 10^4 L·mol^−1'),
  ('O=c1c(O)c(-c2ccc(O)cc2)oc2cc(O)cc(O)c12 [KAE, kaempferol]', '1.6 ± 0.6 × 10^4 L·mol^−1');

###

Readings of ΔG (free energy change) for the listed molecules
Target: CpLIP2 lipase (Candida parapsilosis, UniProt Q8NIN8)
Assay: Quenching of CpLIP2 intrinsic tryptophan fluorescence by flavonols (Stern–Volmer, Lehrer, van't Hoff analysis)
Assay type: binding
Details: 328 K; ΔG = ΔH − TΔS
QUANTITY NAME: ΔG (free energy change) (kcal/mol)

INSERT INTO results (record_smiles, recorded_result) VALUES
  ('O=c1c(O)c(-c2cc(O)c(O)c(O)c2)oc2cc(O)cc(O)c12', -6.88),
  ('O=c1c(O)c(-c2ccc(O)cc2)oc2cc(O)cc(O)c12', -10.3),
  ('O=c1c(O)c(-c2ccc(O)c(O)c2)oc2cc(O)cc(O)c12', -11.1),
  ('O=c1c(O)c(-c2ccccc2)oc2cc(O)cc(O)c12', -22.3);

###

Readings of pKd for the listed molecules
Biological target: UniProt:Q8NIN8
Assay: Quenching of CpLIP2 intrinsic tryptophan fluorescence by flavonols (Stern–Volmer, Lehrer, van't Hoff analysis)
Format: binding
Conditions: Kd (dissociation constant), 328 K
pKd: −log10 of the molar value.
QUANTITY NAME: pKd

INSERT INTO measurements (molecule, recorded_result) VALUES
  ('O=c1c(O)c(-c2ccc(O)cc2)oc2cc(O)cc(O)c12 [KAE, kaempferol]', 4.72),
  ('O=c1c(O)c(-c2ccc(O)c(O)c2)oc2cc(O)cc(O)c12 [QUE, quercetin]', 4.51),
  ('O=c1c(O)c(-c2cc(O)c(O)c(O)c2)oc2cc(O)cc(O)c12 [MYR, myricetin]', 4.92),
  ('O=c1c(O)c(-c2ccccc2)oc2cc(O)cc(O)c12 [GAL, galangin]', 5.00);

###

Molecular target: UniProt:Q8NIN8
Experiment: Quenching of CpLIP2 intrinsic tryptophan fluorescence by flavonols (Stern–Volmer, Lehrer, van't Hoff analysis)
Type: binding
Details: 328 K; Kq = KSV/τ0, τ0 1.59 ns
QUANTITY NAME: Kq (bimolecular quenching constant) (M⁻¹ s⁻¹)

INSERT INTO results (record_smiles, recorded_result) VALUES
  ('O=c1c(O)c(-c2ccccc2)oc2cc(O)cc(O)c12', '1e+13'),
  ('O=c1c(O)c(-c2ccc(O)c(O)c2)oc2cc(O)cc(O)c12', '1.3e+13'),
  ('O=c1c(O)c(-c2cc(O)c(O)c(O)c2)oc2cc(O)cc(O)c12', '9e+12'),
  ('O=c1c(O)c(-c2ccc(O)cc2)oc2cc(O)cc(O)c12', '1e+13');
